// provenance: the supplement of paper PMC10126150

Reported switch fluorescence ratio is given for each of the following sequences.
- Test system: ATP;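 further: ATP exposure 15 min at 22 °C before imaging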
- Measurement Protocol: switch fluorescence ratio, 500 uM ATP over buffer (Cy3 cluster intensity, sum of 5 cycles each) (fold (ratio)); higher = stronger signal-on switching upon ATP binding; sequences stand for … in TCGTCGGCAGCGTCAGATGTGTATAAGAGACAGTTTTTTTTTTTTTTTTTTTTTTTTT…TC
- Test Context: aptamer strand: ATP DNA aptamer (quencher-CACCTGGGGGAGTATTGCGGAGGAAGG + anchor), 100 nM annealed; ATP concentration: 500 uM
// return a plain number; no unit text

Observe how each entry below is paired with its result.
# Seq Text, Observable, Readout Value
data = [
    ("ACGAGAGATT", "switch fluorescence ratio", 1.42),
    ("GGTGTTAGAT", "switch fluorescence ratio", 0.993),
    ("TGTCCCTCTT", "switch fluorescence ratio", 1.02),
    ("GGGTCAAGTC", "switch fluorescence ratio", 0.968),
    ("GGGGCAGGCG", "switch fluorescence ratio", 1.07),
    ("TATGTGAGGA", "switch fluorescence ratio", 0.989),
    ("TTAAGGGTGT", "switch fluorescence ratio", 1.02),
    ("GTGCATGGGG", "switch fluorescence ratio", 1.02),
    ("TCATTATAAT", "switch fluorescence ratio", 1.01),
    ("CCGAACGTCG", "switch fluorescence ratio", 1.88),
]

Value lookup for switch fluorescence ratio; key = TGGGGACGGA
1.02

Value lookup for switch fluorescence ratio; key = AGAAGTAATG
0.997

Value lookup for switch fluorescence ratio; key = CGAGTTTTGC
1.03

Value lookup for switch fluorescence ratio; key = ATACTTAGTG
0.986

Value lookup for switch fluorescence ratio; key = CAGGAGGGGG
0.992
